Each entry below carries its measured normalized ROS response relative to upper and lower toxicity thresholds, system: Reactive oxygen species (ROS) levels in cells.
Measured endpoint: normalized ROS response relative to upper and lower toxicity thresholds

Molecule	Meas value
Cc1cccc(Nc2ccccc2C(=O)O)c1C [Mefenamic Acid]	flagged as being toxic
CCN(CC)CCNc1ccc(CO)c2sc3ccccc3c(=O)c12 [Hycanthone]	flagged as being toxic
CO[C@@H]1[C@@H](OC(N)=O)[C@@H](O)[C@H](Oc2ccc3c(O)c(NC(=O)c4ccc(O)c(CC=C(C)C)c4)c(=O)oc3c2C)OC1(C)C [Novobiocin]	flagged as being toxic
